Target: DRD5 (Homo sapiens)
Sequence (P21918 whole entry, species assumed): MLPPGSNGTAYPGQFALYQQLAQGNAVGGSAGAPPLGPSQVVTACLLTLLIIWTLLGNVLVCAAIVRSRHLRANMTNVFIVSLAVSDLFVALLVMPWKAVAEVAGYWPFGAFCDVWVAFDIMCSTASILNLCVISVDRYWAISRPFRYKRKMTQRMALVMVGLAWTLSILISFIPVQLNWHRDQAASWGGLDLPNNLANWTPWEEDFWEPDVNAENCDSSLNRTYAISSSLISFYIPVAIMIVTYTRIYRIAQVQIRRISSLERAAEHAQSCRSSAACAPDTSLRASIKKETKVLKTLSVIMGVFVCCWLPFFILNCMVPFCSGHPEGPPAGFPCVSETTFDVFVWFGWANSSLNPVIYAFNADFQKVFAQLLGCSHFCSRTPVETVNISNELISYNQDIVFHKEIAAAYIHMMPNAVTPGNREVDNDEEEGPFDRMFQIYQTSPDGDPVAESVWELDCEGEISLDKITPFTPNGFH
OBSERVED_PROPERTY: Kd

Identify the measured Kd of "C[CH2][Hg]" for DRD5 (Homo sapiens).
~0.15 µM

* * *

Molecular target: SLCO2B1 (Homo sapiens, UniProt O94956)
Sequence (O94956 whole entry): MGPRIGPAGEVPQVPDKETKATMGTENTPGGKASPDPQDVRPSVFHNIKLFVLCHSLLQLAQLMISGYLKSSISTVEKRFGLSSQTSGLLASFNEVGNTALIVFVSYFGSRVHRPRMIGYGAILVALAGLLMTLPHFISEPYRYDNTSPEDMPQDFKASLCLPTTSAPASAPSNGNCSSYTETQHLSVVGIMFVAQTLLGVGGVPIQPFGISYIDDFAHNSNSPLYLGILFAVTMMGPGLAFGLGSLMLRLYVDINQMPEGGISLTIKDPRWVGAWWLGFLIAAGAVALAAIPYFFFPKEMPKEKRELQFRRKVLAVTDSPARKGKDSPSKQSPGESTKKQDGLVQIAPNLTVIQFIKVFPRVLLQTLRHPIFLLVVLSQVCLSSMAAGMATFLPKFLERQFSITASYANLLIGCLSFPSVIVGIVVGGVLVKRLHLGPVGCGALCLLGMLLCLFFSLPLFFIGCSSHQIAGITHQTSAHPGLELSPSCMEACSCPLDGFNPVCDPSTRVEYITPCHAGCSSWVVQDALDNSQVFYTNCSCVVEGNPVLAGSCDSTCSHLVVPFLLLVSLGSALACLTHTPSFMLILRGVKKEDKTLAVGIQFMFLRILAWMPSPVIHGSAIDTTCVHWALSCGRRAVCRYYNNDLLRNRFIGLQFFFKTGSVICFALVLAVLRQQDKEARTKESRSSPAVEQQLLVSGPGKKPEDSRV
Assay: in vitro transporter inhibition, SLCO2B1
Format: biochemical
Details: Table 1, predicted target SLCO2B1
OBSERVED_PROPERTY: log10 Ki/IC50 (log10 of the value in nM)
The common logarithm of Ki/IC50 in nM is what is listed.

Recorded results for 3 compounds are shown here.
compound=COc1cc(S(=O)(=O)[O-])c(C)cc1N=Nc1c(O)ccc2cc(S(=O)(=O)[O-])ccc12.[Na+].[Na+] system_name="SLCO2B1 (Homo sapiens, UniProt O94956)" measured_number=3.67
compound="CCCCCCCCCCCCOS(=O)(=O)[O-].[Na+] [Sodium lauryl sulfate]" system_name="SLCO2B1 (Homo sapiens, UniProt O94956)" measured_number=3.45
compound="CCCCC(CC)COC(=O)CC(C(=O)OCC(CC)CCCC)S(=O)(=O)O (centres unmarked) [Docusate sodium]" system_name="SLCO2B1 (Homo sapiens, UniProt O94956)" measured_number=3.36

For the 2 compounds below, give their log10 Ki/IC50 values.
1. O=S(=O)([O-])c1ccc(N=Nc2c(O)ccc3ccccc23)cc1.[Na+]
2. O=S(=O)([O-])c1ccc(N=Nc2c(O)ccc3cc(S(=O)(=O)[O-])ccc23)cc1.[Na+].[Na+]

3.28
4.87

* * *

Experiment: Pharmacokinetics in rats after i.v. and oral administration
Conditions: rat, in vivo, po, 1 mg/kg
OBSERVED_PROPERTY: Cmax (nM)
One number for each entry, in nM.

Looking for the measured Cmax of CCCCCCCCCCCCCCCC[n+]1ccccc1 [Cetylpyridinium chloride] , can you help?
260

* * *

Molecular target: SLCO1B1 (Homo sapiens)
Sequence (Q9Y6L6 1-691): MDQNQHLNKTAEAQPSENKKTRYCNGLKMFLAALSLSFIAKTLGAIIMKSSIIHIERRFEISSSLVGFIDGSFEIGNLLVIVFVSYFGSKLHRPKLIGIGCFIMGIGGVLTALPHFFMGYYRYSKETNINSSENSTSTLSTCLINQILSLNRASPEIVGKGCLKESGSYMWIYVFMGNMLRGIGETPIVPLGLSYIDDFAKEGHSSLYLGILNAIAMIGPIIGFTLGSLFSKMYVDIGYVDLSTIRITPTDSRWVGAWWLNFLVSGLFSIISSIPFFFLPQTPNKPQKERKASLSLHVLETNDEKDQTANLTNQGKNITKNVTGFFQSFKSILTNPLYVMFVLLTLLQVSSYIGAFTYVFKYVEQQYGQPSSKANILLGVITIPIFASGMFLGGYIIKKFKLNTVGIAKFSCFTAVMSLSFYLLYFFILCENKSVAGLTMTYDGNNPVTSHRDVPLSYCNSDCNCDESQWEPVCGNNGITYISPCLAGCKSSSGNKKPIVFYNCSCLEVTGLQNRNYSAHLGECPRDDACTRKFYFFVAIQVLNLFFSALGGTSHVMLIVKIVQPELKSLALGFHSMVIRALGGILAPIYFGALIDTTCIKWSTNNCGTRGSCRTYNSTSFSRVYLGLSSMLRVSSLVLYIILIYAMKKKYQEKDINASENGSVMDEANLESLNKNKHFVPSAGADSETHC
Experiment: in vitro transporter assay, SLCO1B1
Conditions: Table 4, target SLCO1B1
OBSERVED_PROPERTY: pIC50
Give bare numbers, as −log10 of the molar value.

Give SLCO1B1 (Homo sapiens) pIC50 for Cc1ccc(N=Nc2c([O-])c(C(=O)O)cc3ccccc23)c(S(=O)(=O)[O-])c1.[Na+].[Na+] [D&C Red No. 6]
5.51

These entries and their values trace back to paper PMC7960226.
